Molecular target: Fyn (UniProt P06241)
Sequence (P06241 whole entry, looked up): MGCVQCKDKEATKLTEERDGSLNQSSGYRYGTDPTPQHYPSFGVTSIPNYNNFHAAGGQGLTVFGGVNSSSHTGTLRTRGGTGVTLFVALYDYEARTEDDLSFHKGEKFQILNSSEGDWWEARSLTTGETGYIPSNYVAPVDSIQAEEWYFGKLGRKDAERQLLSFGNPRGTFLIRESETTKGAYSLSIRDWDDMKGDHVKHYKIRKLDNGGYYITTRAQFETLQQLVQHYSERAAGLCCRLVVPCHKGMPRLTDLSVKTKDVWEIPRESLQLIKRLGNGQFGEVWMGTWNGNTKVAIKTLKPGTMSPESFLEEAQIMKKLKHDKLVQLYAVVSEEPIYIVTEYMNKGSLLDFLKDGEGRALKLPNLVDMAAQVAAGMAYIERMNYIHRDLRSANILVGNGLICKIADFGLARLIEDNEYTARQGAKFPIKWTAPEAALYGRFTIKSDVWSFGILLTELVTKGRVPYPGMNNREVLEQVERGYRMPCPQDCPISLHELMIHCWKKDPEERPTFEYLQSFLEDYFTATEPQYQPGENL
Test: phosphorylation enrichment, bacterial display (enrichment ratio); higher = better substrate or ligand; peptides without Tyr show the background;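 note: 11-residue human phosphosite peptides and single-mutation variants displayed on the E. coli surface, counted by deep sequencing, each peptide's frequency after selection divided by its frequency in the unselected input library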;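 note: frequency after pTyr selection over input frequency; kinase dosed for 20-30% of maximal phosphorylation in three min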
The threshold is inclusive: phosphorylation enrichment of exactly 0.5 counts as criterion met; values below receive criterion not met.

In [3]: df
Out[3]:
                             seq          assay_system  qualitative_label
0       MVTSGYKAKTI [EFR3A_Y447]  Fyn (UniProt P06241)  criterion not met
1  LEGKEYRMSGE [KRT3_Y511_E509K]  Fyn (UniProt P06241)  criterion not met
2      KSVITYSPTTG [ITGB3BP_Y32]  Fyn (UniProt P06241)  criterion not met
3  RGESFYQDTMN [RARS_Y338_R341T]  Fyn (UniProt P06241)      criterion met

(Q) Please indicate if the recorded phosphorylation enrichment for YEEDSYVERSQ [RET_Y905_K907E] meets or exceeds 0.5.
(A) criterion met

(Q) Please indicate if the recorded phosphorylation enrichment for QTENKYVSVSG [EIF2AK3_Y565_D566V] meets or exceeds 0.5.
(A) criterion met

(Q) Please indicate if the recorded phosphorylation enrichment for SNPAYYVLEGV [INPPL1_Y987_N982S] meets or exceeds 0.5.
(A) criterion met

(Q) Please indicate if the recorded phosphorylation enrichment for VRQQVYKKVEE [HADHA_Y283] meets or exceeds 0.5.
(A) criterion not met

(Q) Please indicate if the recorded phosphorylation enrichment for KPEKTYGLRNE [CEP43_Y267_K271N] meets or exceeds 0.5.
(A) criterion not met
